Biological target: T1, NCR3 on cell (on-cell binding in the affinity-maturation table) (human, UniProt O14931 19-201, limits assumed)
T1 construct: On cell
T1 sequence (looked up): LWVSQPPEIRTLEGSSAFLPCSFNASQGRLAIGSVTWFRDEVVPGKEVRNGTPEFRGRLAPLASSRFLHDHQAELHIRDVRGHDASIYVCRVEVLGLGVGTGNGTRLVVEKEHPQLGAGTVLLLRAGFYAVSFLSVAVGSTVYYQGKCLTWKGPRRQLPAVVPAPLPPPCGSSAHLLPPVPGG
Assay: on-cell binding, Fab on NCR3
Test Readout: EC50 (nM)
Supply the numeric figure in nM, leaving out any unit text.

NCR3.18.9 (Fab, V domains shown, substitutions derived against parental HC3) VH: EVQLVESGGGLVQPGGSLRLSCAASGFNVSSSSIHWVRQAPGKGLEWVASISSSSGSTSYADSVKGRFTISADTSKNTAYLQMNSLRAEDTAVYYCARRKSSSYWSYYDSFYYAGMDYWGQGTLVTVSS VL: DIQMTQSPSSLSASVGDRVTITCRASQSVSSAVAWYQQKPGKAPKLLIYSASSLYSGVPSRFSGSRSGTDFTLTISSLQPEDFATYYCQQSSSSLITFGQGTKVEIKR    2.24

Prompt: Look up EC50: NCR3.18.3 (Fab, V domains shown, substitutions derived against parental HC3) VH: EVQLVESGGGLVQPGGSLRLSCAASGFNVSSSSIHWVRQAPGKGLEWVASISSSSGSTSYADSVKGRFTISADTSKNTAYLQMNSLRAEDTAVYYCARRIGSIYRSYYDSFYYAGMDYWGQGTLVTVSS VL: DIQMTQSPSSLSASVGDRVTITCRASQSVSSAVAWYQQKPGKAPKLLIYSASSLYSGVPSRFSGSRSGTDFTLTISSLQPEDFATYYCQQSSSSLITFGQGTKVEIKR
Completion: 1.61

Prompt: Please answer likewise for NCR3.18.13 (Fab, V domains shown, substitutions derived against parental HC3) VH: EVQLVESGGGLVQPGGSLRLSCAASGFNVSSSSIHWVRQAPGKGLEWVASISSSSGSTSYADSVKGRFTISADTSKNTAYLQMNSLRAEDTAVYYCARRRSSYYMTYYDSFYYAGMDYWGQGTLVTVSS VL: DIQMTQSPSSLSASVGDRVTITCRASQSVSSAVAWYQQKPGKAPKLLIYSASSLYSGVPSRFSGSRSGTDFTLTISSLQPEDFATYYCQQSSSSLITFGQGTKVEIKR
Completion: 2.55

Prompt: Please answer likewise for NCR3.18.17 (Fab, V domains shown, substitutions derived against parental HC3) VH: EVQLVESGGGLVQPGGSLRLSCAASGFNVSSSSIHWVRQAPGKGLEWVASISSSSGSTSYADSVKGRFTISADTSKNTAYLQMNSLRAEDTAVYYCARRVGSYYMSYYDSFYYAGMDYWGQGTLVTVSS VL: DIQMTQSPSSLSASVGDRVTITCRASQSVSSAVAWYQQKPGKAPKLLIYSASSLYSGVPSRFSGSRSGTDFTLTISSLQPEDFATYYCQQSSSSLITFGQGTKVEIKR
Completion: 2.11

Prompt: Please answer likewise for NCR3.18.18 (Fab, V domains shown, substitutions derived against parental HC3) VH: EVQLVESGGGLVQPGGSLRLSCAASGFNVSSSSIHWVRQAPGKGLEWVASISSSSGSTSYADSVKGRFTISADTSKNTAYLQMNSLRAEDTAVYYCARRVSSNYMSYYDSFYYAGMDYWGQGTLVTVSS VL: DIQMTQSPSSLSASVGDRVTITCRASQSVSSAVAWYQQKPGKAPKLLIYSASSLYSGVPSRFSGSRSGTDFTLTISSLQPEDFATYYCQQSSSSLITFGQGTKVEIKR
Completion: 3.39
